Data provenance: BigSolDB 2.1

# RUN PARAMETERS: in THF, 293.15 K
ASSAY ENDPOINT: solubility (mole fraction)

structure=O=C(O)c1cccc(C(=O)O)n1 readout_value=0.00338

----------
# RUN PARAMETERS: in ethanol, 288.15 K
ASSAY ENDPOINT: solubility (mole fraction)

structure=O=C(O)c1cccc(C(=O)O)n1 assay_endpoint="solubility (mole fraction)" readout_value=0.00492

----------
# RUN PARAMETERS: in isopropanol, 318.15 K
ASSAY ENDPOINT: solubility (mole fraction)

structure=O=C(O)c1cccc(C(=O)O)n1 readout_value=0.0125

----------
# RUN PARAMETERS: in acetonitrile, 278.15 K
ASSAY ENDPOINT: solubility (mole fraction)

structure=O=C(O)c1cccc(C(=O)O)n1 readout_value=0.000183

----------
# RUN PARAMETERS: in formic acid, 298.15 K
ASSAY ENDPOINT: solubility (mole fraction)

structure=O=C(O)c1cccc(C(=O)O)n1 readout_value=0.00408

----------
# RUN PARAMETERS: in methanol, 303.15 K
ASSAY ENDPOINT: solubility (mole fraction)

structure=O=C(O)c1cccc(C(=O)O)n1 readout_value=0.0118

----------
# RUN PARAMETERS: in n-propanol, 278.15 K
ASSAY ENDPOINT: solubility (mole fraction)

structure=O=C(O)c1cccc(C(=O)O)n1 readout_value=0.00311

----------
# RUN PARAMETERS: in isopropanol, 308.15 K
ASSAY ENDPOINT: solubility (mole fraction)

structure=O=C(O)c1cccc(C(=O)O)n1 readout_value=0.00896

----------
# RUN PARAMETERS: in acetonitrile, 298.15 K
ASSAY ENDPOINT: solubility (mole fraction)

structure=O=C(O)c1cccc(C(=O)O)n1 assay_endpoint="solubility (mole fraction)" readout_value=0.000379

----------
# RUN PARAMETERS: in toluene, 318.15 K
ASSAY ENDPOINT: solubility (mole fraction)

structure=O=C(O)c1cccc(C(=O)O)n1 readout_value=0.00589

----------
# RUN PARAMETERS: in toluene, 278.15 K
ASSAY ENDPOINT: solubility (mole fraction)

structure=O=C(O)c1cccc(C(=O)O)n1 readout_value=0.000365

----------
# RUN PARAMETERS: in isopropanol, 278.15 K
ASSAY ENDPOINT: solubility (mole fraction)

structure=O=C(O)c1cccc(C(=O)O)n1 readout_value=0.0038

----------
# RUN PARAMETERS: in THF, 288.15 K
ASSAY ENDPOINT: solubility (mole fraction)

structure=O=C(O)c1cccc(C(=O)O)n1 readout_value=0.00302

----------
# RUN PARAMETERS: in acetic acid, 293.15 K
ASSAY ENDPOINT: solubility (mole fraction)

structure=O=C(O)c1cccc(C(=O)O)n1 assay_endpoint="solubility (mole fraction)" readout_value=0.000799

----------
# RUN PARAMETERS: in ethanol, 308.15 K
ASSAY ENDPOINT: solubility (mole fraction)

structure=O=C(O)c1cccc(C(=O)O)n1 assay_endpoint="solubility (mole fraction)" readout_value=0.00974

----------
# RUN PARAMETERS: in acetonitrile, 283.15 K
ASSAY ENDPOINT: solubility (mole fraction)

structure=O=C(O)c1cccc(C(=O)O)n1 assay_endpoint="solubility (mole fraction)" readout_value=0.000225

----------
# RUN PARAMETERS: in formic acid, 288.15 K
ASSAY ENDPOINT: solubility (mole fraction)

structure=O=C(O)c1cccc(C(=O)O)n1 readout_value=0.00326

----------
# RUN PARAMETERS: in n-propanol, 313.15 K
ASSAY ENDPOINT: solubility (mole fraction)

structure=O=C(O)c1cccc(C(=O)O)n1 readout_value=0.0107

----------
# RUN PARAMETERS: in ethanol, 278.15 K
ASSAY ENDPOINT: solubility (mole fraction)

structure=O=C(O)c1cccc(C(=O)O)n1 readout_value=0.00378

----------
# RUN PARAMETERS: in THF, 303.15 K
ASSAY ENDPOINT: solubility (mole fraction)

structure=O=C(O)c1cccc(C(=O)O)n1 readout_value=0.00421

----------
# RUN PARAMETERS: in ethanol, 313.15 K
ASSAY ENDPOINT: solubility (mole fraction)

structure=O=C(O)c1cccc(C(=O)O)n1 readout_value=0.0114

----------
# RUN PARAMETERS: in acetic acid, 318.15 K
ASSAY ENDPOINT: solubility (mole fraction)

structure=O=C(O)c1cccc(C(=O)O)n1 readout_value=0.00156

----------
# RUN PARAMETERS: in n-propanol, 288.15 K
ASSAY ENDPOINT: solubility (mole fraction)

structure=O=C(O)c1cccc(C(=O)O)n1 readout_value=0.00433

----------
# RUN PARAMETERS: in isopropanol, 303.15 K
ASSAY ENDPOINT: solubility (mole fraction)

structure=O=C(O)c1cccc(C(=O)O)n1 readout_value=0.00735

----------
# RUN PARAMETERS: in THF, 298.15 K
ASSAY ENDPOINT: solubility (mole fraction)

structure=O=C(O)c1cccc(C(=O)O)n1 readout_value=0.00381

----------
# RUN PARAMETERS: in ethyl acetate, 288.15 K
ASSAY ENDPOINT: solubility (mole fraction)

structure=O=C(O)c1cccc(C(=O)O)n1 readout_value=0.000602

----------
# RUN PARAMETERS: in acetic acid, 298.15 K
ASSAY ENDPOINT: solubility (mole fraction)

structure=O=C(O)c1cccc(C(=O)O)n1 readout_value=0.000876

----------
# RUN PARAMETERS: in isopropanol, 293.15 K
ASSAY ENDPOINT: solubility (mole fraction)

structure=O=C(O)c1cccc(C(=O)O)n1 assay_endpoint="solubility (mole fraction)" readout_value=0.00555

----------
# RUN PARAMETERS: in toluene, 308.15 K
ASSAY ENDPOINT: solubility (mole fraction)

structure=O=C(O)c1cccc(C(=O)O)n1 readout_value=0.00356

----------
# RUN PARAMETERS: in n-propanol, 303.15 K
ASSAY ENDPOINT: solubility (mole fraction)

structure=O=C(O)c1cccc(C(=O)O)n1 readout_value=0.00761

----------
# RUN PARAMETERS: in methanol, 283.15 K
ASSAY ENDPOINT: solubility (mole fraction)

structure=O=C(O)c1cccc(C(=O)O)n1 readout_value=0.0048

----------
# RUN PARAMETERS: in acetic acid, 303.15 K
ASSAY ENDPOINT: solubility (mole fraction)

structure=O=C(O)c1cccc(C(=O)O)n1 assay_endpoint="solubility (mole fraction)" readout_value=0.000991

----------
# RUN PARAMETERS: in ethyl acetate, 278.15 K
ASSAY ENDPOINT: solubility (mole fraction)

structure=O=C(O)c1cccc(C(=O)O)n1 assay_endpoint="solubility (mole fraction)" readout_value=0.000247

----------
# RUN PARAMETERS: in isopropanol, 313.15 K
ASSAY ENDPOINT: solubility (mole fraction)

structure=O=C(O)c1cccc(C(=O)O)n1 assay_endpoint="solubility (mole fraction)" readout_value=0.0106

----------
# RUN PARAMETERS: in methanol, 313.15 K
ASSAY ENDPOINT: solubility (mole fraction)

structure=O=C(O)c1cccc(C(=O)O)n1 assay_endpoint="solubility (mole fraction)" readout_value=0.0209

----------
# RUN PARAMETERS: in isopropanol, 298.15 K
ASSAY ENDPOINT: solubility (mole fraction)

structure=O=C(O)c1cccc(C(=O)O)n1 readout_value=0.00638

----------
# RUN PARAMETERS: in 1,4-dioxane, 333.15 K
ASSAY ENDPOINT: solubility (mole fraction)

structure=O=C(O)c1cccc(C(=O)O)n1 assay_endpoint="solubility (mole fraction)" readout_value=0.00671

----------
# RUN PARAMETERS: in isopropanol, 288.15 K
ASSAY ENDPOINT: solubility (mole fraction)

structure=O=C(O)c1cccc(C(=O)O)n1 readout_value=0.00485

----------
# RUN PARAMETERS: in 1,4-dioxane, 298.15 K
ASSAY ENDPOINT: solubility (mole fraction)

structure=O=C(O)c1cccc(C(=O)O)n1 readout_value=0.00219

----------
# RUN PARAMETERS: in n-propanol, 298.15 K
ASSAY ENDPOINT: solubility (mole fraction)

structure=O=C(O)c1cccc(C(=O)O)n1 readout_value=0.00632

----------
# RUN PARAMETERS: in ethyl acetate, 293.15 K
ASSAY ENDPOINT: solubility (mole fraction)

structure=O=C(O)c1cccc(C(=O)O)n1 assay_endpoint="solubility (mole fraction)" readout_value=0.000897

----------
# RUN PARAMETERS: in 1,4-dioxane, 303.15 K
ASSAY ENDPOINT: solubility (mole fraction)

structure=O=C(O)c1cccc(C(=O)O)n1 readout_value=0.0025

----------
# RUN PARAMETERS: in n-propanol, 318.15 K
ASSAY ENDPOINT: solubility (mole fraction)

structure=O=C(O)c1cccc(C(=O)O)n1 readout_value=0.0135
